Reported hERG current change (%, negative = inhibition) at 10uM values follow for various molecules
Subject Of Test: human ether-à-go-go-related gene (hERG) potassium channel (human)
Sequence (Q12809 whole entry, looked up): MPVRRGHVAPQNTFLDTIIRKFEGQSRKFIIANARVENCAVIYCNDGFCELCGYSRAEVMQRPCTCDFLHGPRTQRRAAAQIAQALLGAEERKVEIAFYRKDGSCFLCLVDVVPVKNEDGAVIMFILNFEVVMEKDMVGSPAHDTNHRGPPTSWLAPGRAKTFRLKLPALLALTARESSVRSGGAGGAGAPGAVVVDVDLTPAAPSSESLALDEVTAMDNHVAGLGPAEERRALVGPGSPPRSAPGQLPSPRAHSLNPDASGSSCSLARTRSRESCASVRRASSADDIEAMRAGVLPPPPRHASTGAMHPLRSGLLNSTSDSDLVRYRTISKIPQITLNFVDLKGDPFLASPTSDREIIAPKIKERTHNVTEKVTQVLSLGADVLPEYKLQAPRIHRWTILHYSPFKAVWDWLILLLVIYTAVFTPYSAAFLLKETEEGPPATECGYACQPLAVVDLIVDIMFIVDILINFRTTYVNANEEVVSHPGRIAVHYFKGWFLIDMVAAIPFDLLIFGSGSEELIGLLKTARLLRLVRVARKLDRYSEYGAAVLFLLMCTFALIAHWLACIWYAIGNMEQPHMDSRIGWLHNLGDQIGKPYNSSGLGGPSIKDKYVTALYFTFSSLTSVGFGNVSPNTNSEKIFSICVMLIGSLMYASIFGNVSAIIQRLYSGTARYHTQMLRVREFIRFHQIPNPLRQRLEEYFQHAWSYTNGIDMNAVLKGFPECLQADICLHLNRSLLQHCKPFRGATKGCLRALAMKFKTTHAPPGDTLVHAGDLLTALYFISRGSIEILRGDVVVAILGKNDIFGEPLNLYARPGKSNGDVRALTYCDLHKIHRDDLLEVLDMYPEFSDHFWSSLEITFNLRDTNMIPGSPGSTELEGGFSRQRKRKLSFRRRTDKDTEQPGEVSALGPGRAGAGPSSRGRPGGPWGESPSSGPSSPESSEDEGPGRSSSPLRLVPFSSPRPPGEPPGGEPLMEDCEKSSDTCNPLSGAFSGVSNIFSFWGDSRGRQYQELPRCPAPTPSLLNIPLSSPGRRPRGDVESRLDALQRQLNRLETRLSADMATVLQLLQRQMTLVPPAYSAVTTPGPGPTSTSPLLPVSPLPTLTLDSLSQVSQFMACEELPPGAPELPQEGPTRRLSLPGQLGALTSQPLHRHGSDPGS
Test Details: primary screen, population patch clamp on CHO cells stably expressing hERG; higher = less effect of the substance;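 note: peak tail current of the secondary pulse compared with the same well before compound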
Screen size: about 310,000 compounds; about 14,000 (4.5%) showed an effect of 50% or more. Effects have a minus sign here. The list comes from a sample in which strong results are over-represented; it also holds close analogues and randomly drawn compounds.
Dear colleague, please return just the value in %, with no unit written.

See these solved cases before continuing.
>>> reported_measurement("CCOC(=O)c1cnn2c(N)c(C#N)cnc12")
13.9
>>> reported_measurement("CC1C/C(=C/c2cccn2C)C(=O)/C(=C/c2cccn2C)C1 (stereo not shown)")
9.5
>>> reported_measurement("O=S(=O)(c1ccc(Cl)cc1)N1CCN(Cc2c[nH]c3ccccc23)CC1")
-18.8
>>> reported_measurement("O=C(O)C(=O)O.O=[N+]([O-])c1ccccc1CN1CCN(Cc2c[nH]c3ccccc23)CC1")
-24.2
>>> reported_measurement("O=C(O)COCc1nc2ccccc2s1")
-7.92
>>> reported_measurement("O=[N+]([O-])c1ccc(CN2CCN(Cc3c[nH]c4ccccc34)CC2)cc1")
-77.8

Enquiry: Reported hERG current change (%, negative = inhibition) at 10uM for human ether-à-go-go-related gene (hERG) potassium channel (human), given O=C(C1CCN(S(=O)(=O)c2ccc(Br)s2)CC1)N1CCc2ccccc21 ?
Return: -46.8

Enquiry: Reported hERG current change (%, negative = inhibition) at 10uM for human ether-à-go-go-related gene (hERG) potassium channel (human), given CC(C)NC(=O)C1CCN(C(=O)C(C(=O)c2ccccc2)n2cc(Cl)ccc2=O)CC1 (stereo not shown) ?
Return: 6.17

Enquiry: Reported hERG current change (%, negative = inhibition) at 10uM for human ether-à-go-go-related gene (hERG) potassium channel (human), given Cc1cccc(OCCOC(=O)C2CCN(S(=O)(=O)c3cccs3)CC2)c1 ?
Return: 6.58

Enquiry: Reported hERG current change (%, negative = inhibition) at 10uM for human ether-à-go-go-related gene (hERG) potassium channel (human), given COc1cccc(NS(=O)(=O)c2ccc3c(c2)n(C)c(=O)c(=O)n3C)c1 ?
Return: -6.59

###

Reported hERG current change (%, negative = inhibition) at 10uM values follow for various compounds
Subject Of Test: human ether-à-go-go-related gene (hERG) potassium channel (human)
Test Details: primary screen, population patch clamp on CHO cells stably expressing hERG; higher = less effect of the substance
Experimental: Briefly, Chinese hamster ovary (CHO) cells stably expressing the hERG channel were dislodged from tissue culture flasks and dispensed into PPC plates. […] During the recording, background leak currents were estimated by a 100 ms step to -80 mV from an initial holding potential of -70 mV and subtracted from the subsequent current measurement. The campaign was conducted in two phases using slight differences in recording protocol. […]
About 14,000 (4.5%) of roughly 310,000 compounds showed an effect of 50% or more. Effects have a minus sign here. Many of the other results were omitted from the sample, so strong results are more common in it than they were.

>>> reported_measurement("COc1ccc(Cl)cc1NC(=O)C1CCN(S(C)(=O)=O)CC1")
"3.72%"
>>> reported_measurement("CC(=O)c1ccc(NC(=O)CS(=O)(=O)c2cn(CC(=O)N3CCOCC3)c3ccccc23)cc1")
"-58.6%"

Enquiry: Which hERG current change (%, negative = inhibition) at 10uM is listed for O=C(Nc1ccc(Cl)cc1)OCc1cc(-c2ccccc2Cl)on1 ?
Return: 7.51%

Enquiry: Which hERG current change (%, negative = inhibition) at 10uM is listed for CCn1c(N2CCN(CC(=O)c3c(C)n(C)c4ccc(OC)cc34)CC2)nc2c1c(=O)[nH]c(=O)n2C ?
Return: 3.19%

Enquiry: Which hERG current change (%, negative = inhibition) at 10uM is listed for Cc1c(S(=O)(=O)c2ccccn2)c(N)n(Cc2ccccc2)c1C ?
Return: 0.158%

Enquiry: Which hERG current change (%, negative = inhibition) at 10uM is listed for COc1ccc(CCC(=O)NNC(=O)c2ccc(F)cc2)cc1 ?
Return: 6.02%

Enquiry: Which hERG current change (%, negative = inhibition) at 10uM is listed for Br.COc1ccc(-c2csc(CCN3N=C(C)CC3=O)n2)cc1 ?
Return: 12.7%
